# assayProtocol: Single dose clinical study: plasma Compound A pharmacokinetics
# Type: in vivo, human
# measurementParameters: human, plasma, po, 10 mg, plasma, healthy adults (Parts A,B), single oral 10 mg, fasted; read-out: Cmax GM
readoutLabel: Cmax (ng/mL)
// note: answer is a bare numeric in ng/mL

Ask: Tell me its Cmax given COc1ncc(C)c(-c2ccc3c(c2)[nH]c(=O)c2cnn([C@H]4CCOC4)c23)c1C as the entry.
Reply: 60.2

###

# assayProtocol: Single dose clinical study: plasma Compound A pharmacokinetics
# Format: in vivo, human
# measurementParameters: human, plasma, po, 100 mg, Elderly, single oral 100 mg; read-out: AUC(0-inf) Geometric LS Means Test
readoutLabel: AUC(0-inf)

Ask: Answer with the recorded AUC(0-inf) of COc1ncc(C)c(-c2ccc3c(c2)[nH]c(=O)c2cnn([C@H]4CCOC4)c23)c1C [Compound A] only.
Reply: 21300 ng·h/mL

###

# assayProtocol: Single dose clinical study: plasma Compound A pharmacokinetics
# Type: in vivo, human
# measurementParameters: human, plasma, po, 100 mg, plasma, Part B 100 mg cohort, single oral 100 mg, Fasted; read-out: tmax Median (Min, Max)
readoutLabel: Tmax (h)
Report as a plain number; the unit h is understood.

Ask: For the compound COc1ncc(C)c(-c2ccc3c(c2)[nH]c(=O)c2cnn([C@H]4CCOC4)c23)c1C [Compound A] , report Tmax.
Reply: 2.99

###

# assayProtocol: Multiple ascending dose study: plasma pharmacokinetics
# Type: in vivo
# measurementParameters: human, po, 50 mg, Day 1, 50 mg QD oral, read-out: tmax Median
readoutLabel: Tmax (h)
# output: bare number, implied unit h

Ask: Give recorded Tmax. COc1ncc(C)c(-c2ccc3c(c2)[nH]c(=O)c2cnn([C@H]4CCOC4)c23)c1C [Compound A]
Reply: 3.53

###

# assayProtocol: Single dose clinical study: plasma Compound A pharmacokinetics
# Assay type: in vivo, human
# measurementParameters: human, plasma, po, 100 mg, plasma, Part B 100 mg cohort, single oral 100 mg, Fed (high-fat meal); read-out: AUC (0-inf) GM (% CV)
# Experimental: This was a single center, single dose, randomized, double blind, placebo controlled study in healthy subjects. It consisted of 4 parts: Parts A, B, C, and D. Each of the four study parts had 2 phases: Prerandomization Phase and Randomization Phase. The Prerandomization Phase lasted up to 30 days and consisted of a Screening Period and a Baseline Period, during which each subject's study eligibility was determined and baseline assessments were performed. […]
readoutLabel: AUC(0-inf) (ng·h/mL)
Write the value in ng·h/mL as a bare number.

Ask: Please report AUC(0-inf) for the following compound: COc1ncc(C)c(-c2ccc3c(c2)[nH]c(=O)c2cnn([C@H]4CCOC4)c23)c1C
Reply: 17300

###

# assayProtocol: Single dose clinical study: plasma Compound A pharmacokinetics
# Type: in vivo, human
# measurementParameters: human, plasma, po, 100 mg, plasma, Part B 100 mg cohort, single oral 100 mg, Fasted; read-out: AUC (0-72 h) GM (% CV)
readoutLabel: AUC(0-t) (ng·h/mL)
Give the number; ng·h/mL is assumed, so skip it.

Ask: Give AUC(0-t) for COc1ncc(C)c(-c2ccc3c(c2)[nH]c(=O)c2cnn([C@H]4CCOC4)c23)c1C
Reply: 12200

###

# assayProtocol: Multiple ascending dose study: plasma pharmacokinetics
# Type: in vivo
# measurementParameters: human, po, 200 mg, Day 14, 200 mg QD oral, read-out: AUC(0-24 h) Median
# Protocol: Four sequential cohorts of healthy participants (≥50 years and ≤85 years old) were treated with multiple ascending doses of Compound A up to the maximum tolerated dose (MTD). A total of 6 participants per cohort were randomized to Compound A. Proposed doses of Compound A were: Participants received Compound A capsules, orally once daily (QD) on Days 1 to 14 after an overnight fast of at least 10 hours. Compound A was administered orally with 240 milliliter (mL) (8 fluid ounces) of water. […]
readoutLabel: AUC(0-t)
Returns: string containing the number followed by the unit.

Ask: Determine from records and report AUC(0-t) for COc1ncc(C)c(-c2ccc3c(c2)[nH]c(=O)c2cnn([C@H]4CCOC4)c23)c1C [Compound A]
Reply: 21300 ng·h/mL
